- METHOD_NOTES: Probe fluorescence ratio response to arachidonic acid relative to ADIFAB2
- Format: binding
- CONDITIONS_USED: arachidonic acid; response relative to ADIFAB2
RECORDED_METRIC: DR/DR AA

1) 104S2, 72A (protein, listed as Rattus norvegicus, PEPTIDE (1)...(131) wild-type rat intestinal fatty acid binding protein) AFDGTWKVDRNENYEKFMEKMGINVVKRKLGAHDNLKLTITQEGNKFTVKESSNFRNIDVVFELGVDFAYSAADGTELTGTWTMEGNKLVGKFKRVDNGKELISVREISGNELIQTYTYEGVEAKRIFKKE	1.64
2) 62D, 72A (protein, listed as Rattus norvegicus, PEPTIDE (1)...(131) wild-type rat intestinal fatty acid binding protein) AFDGTWKVDRNENYEKFMEKMGINVVKRKLGAHDNLKLTITQEGNKFTVKESSNFRNIDVVDELGVDFAYSAADGTELTGTWTMEGNKLVGKFKRVDNGKELIAVREISGNELIQTYTYEGVEAKRIFKKE	1.485
3) 14R, 72A (protein, listed as Rattus norvegicus, PEPTIDE (1)...(131) wild-type rat intestinal fatty acid binding protein) AFDGTWKVDRNENREKFMEKMGINVVKRKLGAHDNLKLTITQEGNKFTVKESSNFRNIDVVFELGVDFAYSAADGTELTGTWTMEGNKLVGKFKRVDNGKELIAVREISGNELIQTYTYEGVEAKRIFKKE	0.49
